Where do these numbers come from? They come from ChEMBL document CHEMBL2046409.

targetOfAssay: Farnesyl pyrophosphate synthase (Homo sapiens)
testName: Inhibition of human FPPS using […] as substrate incubated for 30 mins prior to substrate addition measured after 20 mins by scintillation counting
testReadout: pIC50
Give bare numbers, as −log10 of the molar value.

Fill in reported pIC50 for this entry: CCCCCCCCCCOc1ccc[n+](CC(P(=O)([O-])O)P(=O)(O)O)c1 (stereo unspecified)
7.00

---

targetOfAssay: Farnesyl pyrophosphate synthase (Homo sapiens, UniProt P14324)
Sequence (P14324 whole entry): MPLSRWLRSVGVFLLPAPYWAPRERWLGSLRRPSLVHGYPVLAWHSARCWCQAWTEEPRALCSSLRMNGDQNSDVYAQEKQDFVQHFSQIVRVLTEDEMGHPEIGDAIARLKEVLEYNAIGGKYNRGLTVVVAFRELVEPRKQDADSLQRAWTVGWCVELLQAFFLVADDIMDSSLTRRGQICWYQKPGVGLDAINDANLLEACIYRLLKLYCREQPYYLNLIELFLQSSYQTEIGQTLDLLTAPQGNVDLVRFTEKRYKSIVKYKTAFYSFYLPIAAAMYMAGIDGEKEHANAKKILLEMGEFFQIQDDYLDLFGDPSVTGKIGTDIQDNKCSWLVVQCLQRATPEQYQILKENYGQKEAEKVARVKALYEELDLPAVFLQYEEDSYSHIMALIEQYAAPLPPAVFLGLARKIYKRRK
testName: Inhibition of human recombinant N-terminal-His6 tagged FPPS expressed in Escherichia coli BL21 using [14C]IPP and GPP as substrate incubated for 10 mins prior to substrate addition measured after 10 mins by scintillation counting
Would you mind telling me the reported IC50 of each entry?

Consider the worked cases shown below.
molecule | val
O=P(O)(O)C(Nc1cc(-c2ccc(OC3CCC3)cc2)ccn1)P(=O)(O)O | 35 nM
O=P(O)(O)C(Nc1cc(-c2ccc3[nH]ncc3c2)ccn1)P(=O)(O)O | 430 nM
O=P(O)(O)C(F)(Cc1cncc(-c2ccccc2)c1)P(=O)(O)O | 115 nM
O=P(O)(O)C(F)(Cc1cncc(-c2ccc3[nH]ncc3c2)c1)P(=O)(O)O | 520 nM
Cc1ccc(-c2ccnc(NC(P(=O)(O)O)P(=O)(O)O)c2)cc1 | 35 nM
CC(C)=CCC/C(C)=C/CC(C/C=C(\C)CCC=C(C)C)(P(=O)(O)O)P(=O)(O)O [DIGERANYL BISPHOSPHONATE] | > 10000 nM

For O=P(O)(O)C(Nc1cc(-c2ccc(OC3CCCC3)cc2)ccn1)P(=O)(O)O , write its IC50.
32 nM
